# reported Solubility; entries follow
assay: Solubility in PBS; assay type: physicochemical; settings: Solubility (uM)

molecule	Solubility
CC(=O)N1CCC[C@]12CC=CCCCC1(CCCC=CCCCOC(=O)N3CC[C@@](C(=O)N[C@@H](Cc4ccccc4Cl)C(=O)N[C@@H](Cc4csc5ccccc45)C(=O)N[C@H](C(N)=O)[C@@H](C)O)(C3)NC(=O)[C@H](CCCCNC(C)C)NC(=O)[C@H](Cc3ccccc3)NC(=O)[C@H](C)NC(=O)[C@H](C)NC(=O)[C@H](CC(=O)O)NC(=O)[C@H](CC(=O)O)NC1=O)NC(=O)[C@H](CC(C)(C)C)NC(=O)[C@H](CC(=O)O)NC2=O (some centres unmarked)	14 µM
CC(=O)N1CCC[C@]12CC=CCCCC1(CCCC=CCCCOC(=O)N3CC[C@@](C(=O)N[C@@H](Cc4ccsc4)C(=O)N[C@@H](Cc4csc5ccccc45)C(=O)N[C@@H](Cc4c[nH]cn4)C(=O)N[C@H](C)C(N)=O)(C3)NC(=O)[C@H](CC(N)=O)NC(=O)[C@H](Cc3ccccc3)NC(=O)[C@H](C)NC(=O)[C@H](C)NC(=O)[C@H](CC(=O)O)NC(=O)[C@H](CC(=O)O)NC1=O)NC(=O)[C@H](CC(C)(C)C)NC(=O)[C@H](CC(=O)O)NC2=O (some centres unmarked)	32 µM
